Just for reference, PubChem BioAssay AID449763 is where these values come from.

- assayDetails: PERK-eIF2a-CHOP pathway stimulators – cell-based, CHO-CHOP luciferase reporter, luminescence, uHTS, primary screen (AID 449763);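 note: 100% = tunicamycin at 10 µg/mL and 0% = DMSO alone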
- measurementSetup: UPR activation, at 10 µM, active compounds read high, percent of tunicamycin response over DMSO baseline
In all, about 330,000 compounds went through this assay and about 1,100 (0.33%) were called active. The entries come from a sample that favours actives as a whole.
quantityName: activation (%)

>>> measuredvalue("O=[N+]([O-])c1ccc(C=Nc2ccc(Cl)cc2Cl)s1")
112
>>> measuredvalue("O=S(=O)(Nc1nccs1)c1ccc2c(c1)OCCO2")
-1.47
>>> measuredvalue("CC1CCCC(C)N1C(=O)COC(=O)COc1ccccc1C#N (stereo not given)")
-1.4
>>> measuredvalue("CC(C)[C@H](NC(=O)N1c2ccccc2NC(=O)[C@@H]1C(C)C)C(=O)N[C@H](C(=O)O)c1ccccc1")
-2.11
>>> measuredvalue("Cc1cccc(NC(=O)CN2CCN(C(=O)C3CCN(C(=O)/C=C/c4ccccc4)CC3)CC2)c1C")
0.754
>>> measuredvalue("CCOC(=O)/C=c1\\s/c(=C\\c2ccc(C#N)cc2)c(=O)n1CC(=O)Nc1cccc(C)c1C")
75.5
>>> measuredvalue("Nc1nc(CC(=O)CSc2ccc(Cl)cc2)nc(Nc2ccc(F)cc2)n1")
42.4
>>> measuredvalue("CSc1ccc(/C=C/C(=O)NC23CC4CC(CC(C4)C2)C3)cc1")
6.51
>>> measuredvalue("Nc1nc(COC(=O)CCC(=O)c2ccc(Cl)cc2)nc(Nc2ccccc2)n1")
0.238
>>> measuredvalue("COC(=O)c1cc(CNC(=O)CC(C)c2ccccc2)ccc1OC (stereo not given)")
2.14
